Reported EC50 values are given for each entry in this list.
biological target: T1, human CD33 (human, UniProt P20138 18-364); assay: flow cytometry on HEK293F cells expressing human CD33; competition with 1 nM AlexaFluor-647 m2H12 (methods paragraph 148)
T1 construct: Endogenous on HL-60 and HEL 92.1.7 AML cells, or recombinant on transfected HEK293F cells; The signal peptide is stated as amino acids 1-17; also called hCD33
T1 sequence (P20138 18-364): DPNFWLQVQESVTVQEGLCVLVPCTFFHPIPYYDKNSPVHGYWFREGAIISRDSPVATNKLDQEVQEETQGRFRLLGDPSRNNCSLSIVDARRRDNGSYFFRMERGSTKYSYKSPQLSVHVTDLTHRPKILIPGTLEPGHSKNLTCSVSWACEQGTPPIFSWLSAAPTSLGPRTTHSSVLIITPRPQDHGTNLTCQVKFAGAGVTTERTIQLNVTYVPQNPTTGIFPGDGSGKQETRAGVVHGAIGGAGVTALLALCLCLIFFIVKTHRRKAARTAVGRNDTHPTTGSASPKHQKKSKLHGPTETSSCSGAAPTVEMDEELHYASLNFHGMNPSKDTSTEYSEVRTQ

Binder	EC50
HCLE (antibody, V domains shown, Humanized antibody, heavy chain HC with light chain LE) VH: QVQLVQSGAEVKKPGASVKVSCKASGYTFTNYDINWVRQAPGQGLEWMGWIYPGDGSTKYNEKFKARVTMTTDTSTSTAYMELRSLRSDDTAVYYCASGYEDAMDYWGQGTTVTVSS VL: DIQMTQSPSSLSASVGDRVTITCKASQDINSYLSWFQQKPGKAPKSLIYRANRLVDGVPSRFSGSGSGTDYTLTISSLQPEDFATYYCLQYDEFPLTFGGGTKVEIK	22.2 nM
murine mAb 2H12 (antibody, V domains shown, Murine monoclonal antibody from Balb/c mice; also called m2H12; murine 2H12 antibody) VH: QVQLQQSGPELVRPGTFVKISCKASGYTFTNYDINWVNQRPGQGLEWIGWIYPGDGSTKYNEKFKAKATLTADKSSSTAYLQLNNLTSENSAVYFCASGYEDAMDYWGQGTSVTVSS VL: DIKMTQSPSSMYASLGERVIINCKASQDINSYLSWFQQKPGKSPKTLIYRANRLVDGVPSRFSGSGSGQDYSLTISSLEYEDMGIYYCLQYDEFPLTFGAGTKLELK	11.6 nM
HILE (antibody, V domains shown, Humanized antibody, heavy chain HI with light chain LE) VH: QVQLVQSGAEVKKPGASVKVSCKASGYTFTNYDINWVRQAPGQGLEWIGWIYPGDGSTKYNEKFKAKATLTADTSTSTAYMELRSLRSDDTAVYYCASGYEDAMDYWGQGTTVTVSS VL: DIQMTQSPSSLSASVGDRVTITCKASQDINSYLSWFQQKPGKAPKSLIYRANRLVDGVPSRFSGSGSGTDYTLTISSLQPEDFATYYCLQYDEFPLTFGGGTKVEIK	19.3 nM
HCLA (antibody, V domains shown, Humanized antibody, heavy chain HC with light chain LA) VH: QVQLVQSGAEVKKPGASVKVSCKASGYTFTNYDINWVRQAPGQGLEWMGWIYPGDGSTKYNEKFKARVTMTTDTSTSTAYMELRSLRSDDTAVYYCASGYEDAMDYWGQGTTVTVSS VL: DIQMTQSPSSLSASVGDRVTITCKASQDINSYLSWFQQKPGKAPKSLIYRANRLVDGVPSRFSGSGSGTDFTLTISSLQPEDFATYYCLQYDEFPLTFGGGTKVEIK	31.7 nM
h2H12 antibody (2H12 HILG) (antibody, V domains shown, also called humanized 2H12; human 2H12 antibody) VH: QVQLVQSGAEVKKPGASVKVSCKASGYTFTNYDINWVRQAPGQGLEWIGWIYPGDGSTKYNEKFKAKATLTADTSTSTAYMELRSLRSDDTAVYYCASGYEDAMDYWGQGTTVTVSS VL: DIQMTQSPSSLSASVGDRVTINCKASQDINSYLSWFQQKPGKAPKTLIYRANRLVDGVPSRFSGSGSGQDYTLTISSLQPEDFATYYCLQYDEFPLTFGGGTKVEIK	14.4 nM
HCLG (antibody, V domains shown, Humanized antibody, heavy chain HC with light chain LG) VH: QVQLVQSGAEVKKPGASVKVSCKASGYTFTNYDINWVRQAPGQGLEWMGWIYPGDGSTKYNEKFKARVTMTTDTSTSTAYMELRSLRSDDTAVYYCASGYEDAMDYWGQGTTVTVSS VL: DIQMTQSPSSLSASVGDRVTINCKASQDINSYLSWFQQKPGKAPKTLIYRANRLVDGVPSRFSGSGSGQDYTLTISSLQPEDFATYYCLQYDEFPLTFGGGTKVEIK	17.9 nM
HILA (antibody, V domains shown, Humanized antibody, heavy chain HI with light chain LA) VH: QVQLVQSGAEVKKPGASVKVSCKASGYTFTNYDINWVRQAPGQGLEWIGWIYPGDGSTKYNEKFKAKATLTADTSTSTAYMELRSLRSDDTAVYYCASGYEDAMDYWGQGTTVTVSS VL: DIQMTQSPSSLSASVGDRVTITCKASQDINSYLSWFQQKPGKAPKSLIYRANRLVDGVPSRFSGSGSGTDFTLTISSLQPEDFATYYCLQYDEFPLTFGGGTKVEIK	26.8 nM
